target_desc: S100B (Homo sapiens)
Construct: made in house; host or cells: Escherichia coli BL21(DE3)
Sequence (P04271 whole entry): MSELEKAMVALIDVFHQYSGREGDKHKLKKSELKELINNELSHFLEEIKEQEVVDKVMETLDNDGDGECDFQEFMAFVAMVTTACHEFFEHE
assay_procedure: Pull-down assay with immobilized protein and LSM libraries
Assay type: binding
reported_conditions: H12 library; 1:1 binding assumed; read-out: Surface mapping KD (apparent)
recorded_metric: Kd (µM)

Worked examples, 6 compounds total:
• C[C@@H](CC(=O)N[C@H]1CCC[C@@H]1C(=O)N[C@H]1CCC[C@@H]1C(N)=O)NC(=O)[C@H]1CCC[C@@H]1NC(=O)[C@H]1CCC[C@@H]1NC(=O)C[C@H](Cc1ccccc1)NC(=O)[C@H]1CCC[C@@H]1NC(=O)[C@H]1CCC[C@@H]1N = 116
• CC[C@H](C)[C@@H](CC(=O)N[C@H]1CCC[C@@H]1C(=O)N[C@H]1CCC[C@@H]1C(N)=O)NC(=O)[C@H]1CCC[C@@H]1NC(=O)[C@H]1CCC[C@@H]1NC(=O)C[C@H](CCCNC(=N)N)NC(=O)[C@H]1CCC[C@@H]1NC(=O)[C@H]1CCC[C@@H]1N = 56
• CC(C)C[C@@H](CC(=O)N[C@H]1CCC[C@@H]1C(=O)N[C@H]1CCC[C@@H]1C(N)=O)NC(=O)[C@H]1CCC[C@@H]1NC(=O)[C@H]1CCC[C@@H]1NC(=O)C[C@H](Cc1ccccc1)NC(=O)[C@H]1CCC[C@@H]1NC(=O)[C@H]1CCC[C@@H]1N = 14
• N=C(N)NCCC[C@@H](CC(=O)N[C@H]1CCC[C@@H]1C(=O)N[C@H]1CCC[C@@H]1C(N)=O)NC(=O)[C@H]1CCC[C@@H]1NC(=O)[C@H]1CCC[C@@H]1NC(=O)C[C@H](Cc1ccccc1)NC(=O)[C@H]1CCC[C@@H]1NC(=O)[C@H]1CCC[C@@H]1N = 28
• CC(C)C[C@@H](CC(=O)N[C@H]1CCC[C@@H]1C(=O)N[C@H]1CCC[C@@H]1C(=O)N[C@H](CC(=O)N[C@H]1CCC[C@@H]1C(=O)N[C@H]1CCC[C@@H]1C(N)=O)[C@@H](C)O)NC(=O)[C@H]1CCC[C@@H]1NC(=O)[C@H]1CCC[C@@H]1N = 216
• CSCC[C@@H](CC(=O)N[C@H]1CCC[C@@H]1C(=O)N[C@H]1CCC[C@@H]1C(=O)N[C@@H](CC(N)=O)CC(=O)N[C@H]1CCC[C@@H]1C(=O)N[C@H]1CCC[C@@H]1C(N)=O)NC(=O)[C@H]1CCC[C@@H]1NC(=O)[C@H]1CCC[C@@H]1N = 177

P. N=C(N)NCCC[C@@H](CC(=O)N[C@H]1CCC[C@@H]1C(=O)N[C@H]1CCC[C@@H]1C(N)=O)NC(=O)[C@H]1CCC[C@@H]1NC(=O)[C@H]1CCC[C@@H]1NC(=O)C[C@H](CO)NC(=O)[C@H]1CCC[C@@H]1NC(=O)[C@H]1CCC[C@@H]1N
Q. CC(C)C[C@@H](CC(=O)N[C@H]1CCC[C@@H]1C(=O)N[C@H]1CCC[C@@H]1C(=O)N[C@@H](CCC(N)=O)CC(=O)N[C@H]1CCC[C@@H]1C(=O)N[C@H]1CCC[C@@H]1C(N)=O)NC(=O)[C@H]1CCC[C@@H]1NC(=O)[C@H]1CCC[C@@H]1N
# query: argmin of Kd over P and Q Your choice should be expressed through its label.
P
(P: 123 µM, Q: 348 µM)
